Every entry's value here was drawn from patent US8815934B2.

System: Immature Sprague-Dawley rats
Assay: Rat uterotrophic/antiuterotrophic bioassay
Type: in vivo
Settings: immature female rats, daily ip, 100 uG compound; wet weight
Uterine wt mg 100 uG cmpd by entry:
reported property: Uterine wt mg 100 uG cmpd (mg)

>  <compound>
N#Cc1c(-c2ccc(O)cc2)n(Cc2ccc(OCCN3CCCCCC3)cc2)c2ccc(O)cc12 [No. 139]

>  <assay result>
30.4

$$$$
>  <compound>
COc1cc(Cn2c(-c3ccc(O)cc3)c(C)c3cc(O)ccc32)ccc1OCCN1CCCCCC1 [No. 168]

>  <assay result>
43.2

$$$$
>  <compound>
N#Cc1c(-c2ccc(O)cc2)n(Cc2ccc(OCCN3CCCCC3)cc2)c2ccc(O)cc12 [No. 138]

>  <assay result>
28.4

$$$$
>  <compound>
Cc1c(-c2ccc(O)cc2)n(Cc2ccc(OCCN3CCCCCC3)cc2)c2ccc(O)cc12 [No. 98]

>  <assay result>
29.4

$$$$

###

Target: estrogen receptor (Homo sapiens (Human))
Sequence (P03372 whole entry): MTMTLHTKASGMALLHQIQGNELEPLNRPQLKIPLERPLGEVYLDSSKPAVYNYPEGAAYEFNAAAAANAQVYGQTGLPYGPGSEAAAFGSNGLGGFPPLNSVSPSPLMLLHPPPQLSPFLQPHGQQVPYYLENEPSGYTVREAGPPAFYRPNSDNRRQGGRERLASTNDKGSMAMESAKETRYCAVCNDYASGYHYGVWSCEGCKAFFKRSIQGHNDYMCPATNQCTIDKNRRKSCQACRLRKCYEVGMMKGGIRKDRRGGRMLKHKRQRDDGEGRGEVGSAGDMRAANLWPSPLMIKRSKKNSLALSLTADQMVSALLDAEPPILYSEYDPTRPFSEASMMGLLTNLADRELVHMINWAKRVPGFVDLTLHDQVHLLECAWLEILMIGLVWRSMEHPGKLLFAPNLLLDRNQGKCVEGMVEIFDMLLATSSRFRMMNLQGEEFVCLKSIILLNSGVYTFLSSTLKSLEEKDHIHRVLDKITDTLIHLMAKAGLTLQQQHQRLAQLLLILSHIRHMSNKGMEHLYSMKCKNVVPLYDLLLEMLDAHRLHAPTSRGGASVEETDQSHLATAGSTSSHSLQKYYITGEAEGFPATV
Assay: 2×VIT ERE infection luciferase assay
Type: cell-based
Details: 1 uM compound alone; percentage of activity as compared to 17β-estradiol
Quick list: Infection Luciferase Activity, 1 uM per entry.
reported property: Infection Luciferase Activity, 1 uM

>  <compound>
Cc1c(-c2ccc(O)cc2)n(Cc2ccc(OCCN3CCCC(C)(C)C3)cc2)c2ccc(O)cc12

>  <experimental system>
estrogen receptor (Homo sapiens (Human))

>  <reported property>
Infection Luciferase Activity, 1 uM

>  <assay result>
25%

$$$$
>  <compound>
Cc1c(-c2ccc(O)cc2)n(Cc2ccc(OCCN3CC4(C)CC3CC(C)(C)C4)cc2)c2ccc(O)cc12 (centres unmarked)

>  <experimental system>
estrogen receptor (Homo sapiens (Human))

>  <reported property>
Infection Luciferase Activity, 1 uM

>  <assay result>
11%

$$$$
>  <compound>
Cc1c(-c2cccc(O)c2)n(Cc2ccc(OCCN3CCCCC3)cc2)c2ccc(O)cc12

>  <experimental system>
estrogen receptor (Homo sapiens (Human))

>  <reported property>
Infection Luciferase Activity, 1 uM

>  <assay result>
−3%

$$$$
>  <compound>
Cc1c(-c2ccc3c(c2)OCO3)n(Cc2ccc(OCCN3CCCCC3)cc2)c2ccc(O)cc12

>  <experimental system>
estrogen receptor (Homo sapiens (Human))

>  <reported property>
Infection Luciferase Activity, 1 uM

>  <assay result>
−1%

$$$$
>  <compound>
Cc1c(-c2ccc(O)cc2)n(Cc2ccc(OCCN(C(C)C)C(C)C)cc2)c2ccc(O)cc12

>  <experimental system>
estrogen receptor (Homo sapiens (Human))

>  <reported property>
Infection Luciferase Activity, 1 uM

>  <assay result>
7%

$$$$
>  <compound>
Cc1c(-c2ccccc2)n(Cc2ccc(OCCN3CCCCC3)cc2)c2ccccc12

>  <experimental system>
estrogen receptor (Homo sapiens (Human))

>  <reported property>
Infection Luciferase Activity, 1 uM

>  <assay result>
−2%

$$$$
>  <compound>
Cc1c(-c2ccc(O)cc2)n(Cc2ccc(OCCN3C[C@@H]4CC[C@H]3C4)cc2)c2ccc(O)cc12

>  <experimental system>
estrogen receptor (Homo sapiens (Human))

>  <reported property>
Infection Luciferase Activity, 1 uM

>  <assay result>
1%

$$$$
>  <compound>
Cc1c(-c2ccc(OC(=O)C(C)(C)C)cc2)n(Cc2ccc(OCCN3CCCCC3)cc2)c2ccc(OC(=O)C(C)(C)C)cc12

>  <experimental system>
estrogen receptor (Homo sapiens (Human))

>  <reported property>
Infection Luciferase Activity, 1 uM

>  <assay result>
−14%

$$$$
